Attribution: patent US20260242735A1

Target: human CD33 G266A (human, UniProt P20138 18-364)
Sequence (P20138 18-364 G266A limits assumed): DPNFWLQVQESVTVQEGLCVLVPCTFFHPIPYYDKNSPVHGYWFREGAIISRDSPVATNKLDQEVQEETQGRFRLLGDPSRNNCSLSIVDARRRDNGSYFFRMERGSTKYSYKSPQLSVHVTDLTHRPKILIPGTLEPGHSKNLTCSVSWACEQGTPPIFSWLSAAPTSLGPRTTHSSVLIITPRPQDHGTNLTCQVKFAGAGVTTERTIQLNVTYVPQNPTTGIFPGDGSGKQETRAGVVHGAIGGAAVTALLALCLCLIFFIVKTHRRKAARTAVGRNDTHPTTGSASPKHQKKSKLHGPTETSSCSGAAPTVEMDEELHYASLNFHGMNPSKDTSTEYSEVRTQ
Assay: alanine scan, flow cytometry, HEK293-T;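 further: antibody binding to each alanine-substituted CD33 mutant expressed transiently in HEK293-T, read as fluorescence minus background, mean of duplicates, relative to wild-type CD33 set as 100%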
Measured Mean % WT Binding of individual entries
Write the answer as a number in % WT binding, unit excluded.

In plain terms, Refmab #3 (antibody, V domains shown, The alanine scan used IgG or Fab) VH: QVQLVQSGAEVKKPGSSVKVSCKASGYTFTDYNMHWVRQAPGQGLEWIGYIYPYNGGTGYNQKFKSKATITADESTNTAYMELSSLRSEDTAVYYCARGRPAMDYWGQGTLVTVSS VL: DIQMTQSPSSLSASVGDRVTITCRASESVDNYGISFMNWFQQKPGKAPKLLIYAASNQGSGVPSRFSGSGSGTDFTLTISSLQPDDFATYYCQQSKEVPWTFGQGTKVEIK has a documented Mean % WT Binding of 97.8

In plain terms, Refmab #1 (antibody, V domains shown, The alanine scan used IgG or Fab; also called hP67.6) VH: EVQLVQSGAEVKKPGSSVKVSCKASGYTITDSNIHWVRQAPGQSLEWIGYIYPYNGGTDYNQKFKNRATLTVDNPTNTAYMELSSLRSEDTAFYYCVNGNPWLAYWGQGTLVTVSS VL: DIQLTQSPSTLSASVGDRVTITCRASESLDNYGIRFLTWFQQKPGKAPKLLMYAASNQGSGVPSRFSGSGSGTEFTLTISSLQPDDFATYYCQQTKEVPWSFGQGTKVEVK has a documented Mean % WT Binding of 100

In plain terms, Refmab #2 (antibody, V domains shown, The alanine scan used IgG or Fab) VH: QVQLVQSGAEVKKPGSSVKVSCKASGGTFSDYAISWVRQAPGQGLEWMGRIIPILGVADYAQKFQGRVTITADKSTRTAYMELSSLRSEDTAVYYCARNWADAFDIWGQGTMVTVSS VL: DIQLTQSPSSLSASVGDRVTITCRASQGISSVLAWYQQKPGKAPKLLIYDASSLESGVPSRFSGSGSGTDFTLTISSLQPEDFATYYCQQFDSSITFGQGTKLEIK has a documented Mean % WT Binding of 116

In plain terms, Refmab #4 (antibody, V domains shown, The alanine scan used IgG or Fab) VH: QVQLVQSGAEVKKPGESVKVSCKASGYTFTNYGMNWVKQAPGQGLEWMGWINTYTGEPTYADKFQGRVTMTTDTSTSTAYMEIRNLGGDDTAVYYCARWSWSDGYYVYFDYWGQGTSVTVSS VL: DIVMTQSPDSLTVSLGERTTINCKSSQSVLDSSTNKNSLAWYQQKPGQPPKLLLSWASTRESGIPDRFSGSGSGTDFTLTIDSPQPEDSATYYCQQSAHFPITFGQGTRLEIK has a documented Mean % WT Binding of 112
